test system: human keratinocytes HaCaT; assay: Antiproliferative activity, MTT dye reduction assay, HaCaT; type: cell-based; conditions: non-tumor keratinocytes HaCaT, 72 h, n = 6, read-out: Mean IC50 ± SD, HaCaT
measure: IC50 (µM)
Numbers only, in µM.

stdin: Recorded IC50 of N.N.[Cl][Pt][Cl] [Cisplatin, reference compound] , please.
stdout: 8.64

====

test system: mouse embryonic fibroblasts BALB 3T3 clone A31; assay: BALB 3T3 Neutral Red Uptake safety test (cytotoxicity/phototoxicity); format: cell-based; conditions: PIF = CC50 −Irr/CC50 +Irr; PIF < 2 not phototoxic, 2 < PIF < 5 probable phototoxicity, PIF > 5 phototoxic
measure: PIF (Photo Irritation Factor)
Numbers only.

Some compounds with recorded PIF (Photo Irritation Factor):
stdin: Look at this compound and give its reported PIF (Photo Irritation Factor). CCOC(=O)c1cc(-c2ccc(Cl)cc2)n(C(Cc2ccccc2)C(=O)N/N=C/c2[nH]c(C)c(C(=O)OCC)c2C)c1C (stereo not drawn) [Compound 1B]
stdout: 0.96

stdin: Recorded PIF (Photo Irritation Factor) for CN(C)CCCN1c2ccccc2Sc2ccc(Cl)cc21 [Chlorpromazine, reference compound] , please?
stdout: 7.21

stdin: Requested read-out: PIF (Photo Irritation Factor). Entry: CCOC(=O)c1cc(-c2ccc(Cl)cc2)n(C(Cc2ccccc2)C(=O)N/N=C/c2c(C)[nH]c(C)c2C(=O)OCC)c1C (stereo not drawn) [Compound 1D]
stdout: 1.13

Take each entry in turn and give its PIF (Photo Irritation Factor).
1. CCOC(=O)c1cc(-c2ccc(Cl)cc2)n(C(Cc2ccccc2)C(=O)N/N=C/c2[nH]c(C(=O)OCC)c(C)c2C(=O)OCC)c1C (stereo not drawn) [Compound 1A]
2. CCOC(=O)c1cc(-c2ccc(Cl)cc2)n(C(Cc2ccccc2)C(=O)NN)c1C (stereo not drawn) [Compound 1]
3. CCOC(=O)c1cc(-c2ccc(Cl)cc2)n(C(Cc2ccccc2)C(=O)N/N=C/c2c(C)[nH]c(C(=O)OCC)c2C)c1C (stereo not drawn) [Compound 1C]

stdout:
1. 1.11
2. 0.94
3. 0.95
